- tested-on: protein kinases (human kinome) (Homo sapiens, UniProt Q08881)
- Sequence (Q08881 whole entry): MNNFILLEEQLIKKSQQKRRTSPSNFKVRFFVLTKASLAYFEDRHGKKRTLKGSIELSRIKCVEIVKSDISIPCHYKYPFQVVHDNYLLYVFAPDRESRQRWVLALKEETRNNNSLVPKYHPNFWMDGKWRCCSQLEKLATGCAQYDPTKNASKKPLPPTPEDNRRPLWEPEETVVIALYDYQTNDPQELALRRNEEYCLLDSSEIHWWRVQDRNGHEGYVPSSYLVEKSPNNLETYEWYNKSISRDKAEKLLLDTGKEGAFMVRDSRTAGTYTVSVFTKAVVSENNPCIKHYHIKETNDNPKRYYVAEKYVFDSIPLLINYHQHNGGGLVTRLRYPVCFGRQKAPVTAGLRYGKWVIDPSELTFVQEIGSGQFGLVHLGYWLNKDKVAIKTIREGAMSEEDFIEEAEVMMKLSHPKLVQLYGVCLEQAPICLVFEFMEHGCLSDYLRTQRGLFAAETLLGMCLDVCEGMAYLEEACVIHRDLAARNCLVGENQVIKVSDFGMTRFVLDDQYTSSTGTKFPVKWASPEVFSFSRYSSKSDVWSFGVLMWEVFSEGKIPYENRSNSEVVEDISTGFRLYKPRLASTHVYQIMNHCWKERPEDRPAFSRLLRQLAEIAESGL
- Type: cell-based
- conditions: experiment wp016; direction of change down
property-measured: logFC ITK (Q08881)

Below: 5 molecules and their reported logFC ITK (Q08881).
Query :: Name the reported logFC ITK (Q08881) value associated with the molecule CC(C)S(=O)(=O)c1ccccc1Nc1nc(Nc2ccc(N3CCN(CCOCCNC(=O)CNc4cccc5c4C(=O)N(C4CCC(=O)NC4=O)C5=O)CC3)cc2)ncc1Cl (stereo not drawn)
Result :: −2.308

Query :: Given CC(C)S(=O)(=O)c1ccccc1Nc1nc(Nc2ccc(N3CCN(CCOCCOCCNC(=O)CNc4cccc5c4C(=O)N(C4CCC(=O)NC4=O)C5=O)CC3)cc2)ncc1Cl (stereo not drawn) , state its recorded logFC ITK (Q08881).
Result :: −2.342

Query :: # input molecule: CC(C)S(=O)(=O)c1ccccc1Nc1nc(Nc2ccc(N3CCN(CCOCCOCCNC(=O)CNc4ccc5c(c4)C(=O)N(C4CCC(=O)NC4=O)C5=O)CC3)cc2)ncc1Cl (stereo not drawn) ; wanted: its logFC ITK (Q08881)
Result :: −2.212

Query :: What value of logFC ITK (Q08881) has been reported for the following molecule? CC(C)S(=O)(=O)c1ccccc1Nc1nc(Nc2ccc(N3CCN(CCOCCOCCOCCNC(=O)CNc4cccc5c4C(=O)N(C4CCC(=O)NC4=O)C5=O)CC3)cc2)ncc1Cl (stereo not drawn)
Result :: −1.868

Query :: For the molecule shown here, CC(C)S(=O)(=O)c1ccccc1Nc1nc(Nc2ccc(N3CCN(CCOCCNC(=O)CNc4ccc5c(c4)C(=O)N(C4CCC(=O)NC4=O)C5=O)CC3)cc2)ncc1Cl (stereo not drawn) , give the reported logFC ITK (Q08881).
Result :: −2.136

***
Query :: So what does the record say about logFC ITK (Q08881) for CC(C)S(=O)(=O)c1ccccc1Nc1nc(Nc2ccc(N3CCN(CCOCCOCCOCCNC(=O)CNc4ccc5c(c4)C(=O)N(C4CCC(=O)NC4=O)C5=O)CC3)cc2)ncc1Cl (stereo not drawn) ?
Result :: −2.044
